Exercise: state measured fold change (FC) for each of the molecules provided.
System: Human immunodeficiency virus 1
Assay: Antiviral activity against HIV1 NL4-3 harboring reverse transcriptase V108I, H221Y, F227F/L, M230M/I mutant infected in human SupT1 cells derived from 11 viral passages with lersivirine assessed as inhibition of viral replication after 21 days relative to drug sensitive HIV1 NL4-3
Format: functional, SUP-T1
Answers are plain numbers.

CC(C)Nc1cccnc1N1CCN(C(=O)c2cc3cc(NS(C)(=O)=O)ccc3[nH]2)CC1 [DELAVIRDINE] | 0.2
Cc1ccnc2c1NC(=O)c1cccnc1N2C1CC1 [NEVIRAPINE] | 6.4
CCc1nn(CCO)c(CC)c1Oc1cc(C#N)cc(C#N)c1 [LERSIVIRINE] | 60.5

Then there is this molecule:
## Task What measured fold change (FC) goes with Cc1cn([C@H]2C[C@H](N=[N+]=[N-])[C@@H](CO)O2)c(=O)[nH]c1=O [ZIDOVUDINE] ?
## Result 0.1
